- System: U2OS
- MEASUREMENT_DESCRIPTION: Multiplex assay against U2OS
- Assay type: toxicity, cell-based
- TEST_PARAMETERS: human, 12 h, 10 µM, compound concentration 10 uM, replicate 2
Please go through the items and note down their Population Mitotic Cells (%).
Answers are plain numbers, in %.

* COc1ncc(-c2ccc3nccc(-c4ccnnc4)c3c2)cc1NS(=O)(=O)c1ccc(F)cc1F [OMIPALISIB] | 34
* C=CC(=O)Nc1cc2c(Nc3ccc(F)c(Cl)c3)ncnc2cc1OCCCN1CCOCC1.Cl.Cl [CANERTINIB DIHYDROCHLORIDE] | 66
* CNc1nc(NCc2ccc(NS(C)(=O)=O)cc2Cl)cc(-c2ccccn2)n1 | 42
* CN1CCN(CCOc2cc(OC3CCOCC3)c3c(Nc4c(Cl)ccc5c4OCO5)ncnc3c2)CC1 [SARACATINIB] | 25
* C=CC(=O)Nc1cccc(C(=O)Nc2ccc(Nc3cc(-c4[nH]c(SC)nc4C)ccn3)cc2)c1 | 60

Hey, can you go through the list below and give me Population Mitotic Cells (%) for every item?
1. CN1CCC[C@@H]1CCO[C@](C)(c1ccccc1)c1ccc(Cl)cc1.O=C(O)/C=C/C(=O)O [CLEMASTINE FUMARATE]
2. O=C1NCN(c2ccccc2)C12CCN(CCCOc1ccc(F)cc1)CC2 [SPIRAMIDE]
3. Cc1c(-c2ccc(O)cc2)n(Cc2ccc(OCCN3CCCCCC3)cc2)c2ccc(O)cc12 [BAZEDOXIFENE]

[14, 50, 40]

###

Please go through the items and note down their Population Fragmented Nuclei (%).
- Test system: Fibroblast
- MEASUREMENT_DESCRIPTION: Multiplex assay against human fibroblast
- Type: toxicity, cell-based
- TEST_PARAMETERS: 12 h, 10 µM, compound concentration 10 uM, replicate 1

Below, each entry is followed by its recorded Population Fragmented Nuclei (%) result.
* C[C@@H](NCCCc1cccc(C(F)(F)F)c1)c1cccc2ccccc12.Cl [CINACALCET HYDROCHLORIDE] | 33%
* Cc1[nH]c(/C=C2\C(=O)Nc3ccc(S(=O)(=O)N(C)c4cccc(Cl)c4)cc32)c(C)c1C(=O)N1CCN(C)CC1 | 20%
* CN(C)CC#Cc1ccc(OCCCc2sc(N3CCc4cccc(C(=O)Nc5nc6ccccc6s5)c4C3)nc2C(=O)O)c(F)c1 [A-1155463] | 24%
* COc1cc(-n2cnc3cc(-c4ccc(Cl)cc4)sc3c2=O)ccc1OCCN1CCCC1 | 33%
* C=CC(=O)Nc1cccc(C(=O)Nc2ccc(Nc3cc(-c4[nH]c(SC)nc4C)ccn3)cc2)c1 | 27%

Hey, can you go through the list below and give me Population Fragmented Nuclei (%) for every item?
1. O=C(NCCCC1CCCCC1)c1ccc(CNC(=O)c2cnn(-c3ccccc3)c2C(F)(F)F)cc1 [SR-321]
2. Cc1cc(C)cc(-c2cnc3cc(Cl)c(-c4cccc(O)c4)cc3c2OCCCN)c1
3. COc1cc2nccc(Oc3ccc(NC(=O)Nc4cc(C)on4)c(Cl)c3)c2cc1OC.O
4. CN1CCN(CCOc2cc(OC3CCOCC3)c3c(Nc4c(Cl)ccc5c4OCO5)ncnc3c2)CC1 [SARACATINIB]
5. Cc1nc(-c2ccc(-c3ccc(C(=O)N4CCc5cc6c(cc54)C4(CCN(C)CC4)CO6)cc3)c(C)c2)no1 [SB-224289]
6. Cn1cc(-c2[nH]c3cc(NC(=O)[C@H](N)C4CCCCC4)cc4c3c2C=NNC4=O)cn1
7. CC[C@H](C)C(=O)O[C@H]1C[C@@H](C)C=C2C=C[C@H](C)[C@H](CC[C@@H]3C[C@@H](O)CC(=O)O3)[C@H]21 [LOVASTATIN]
8. CC(C)NCC(O)COc1ccc(CCOCC2CC2)cc1.Cl (stereo not drawn) [BETAXOLOL HYDROCHLORIDE]

1. 23% [middle of 4 runs]
2. 31%
3. 30%
4. 20%
5. 34%
6. 48%
7. 33%
8. 17%

Hey, can you go through the list below and give me Population Fragmented Nuclei (%) for every item?
1. CN1CCC[C@@H]1CCO[C@](C)(c1ccccc1)c1ccc(Cl)cc1.O=C(O)/C=C/C(=O)O [CLEMASTINE FUMARATE]
2. C=CC(=O)Nc1cc2c(Nc3ccc(F)c(Cl)c3)ncnc2cc1OCCCN1CCOCC1.Cl.Cl [CANERTINIB DIHYDROCHLORIDE]
3. C=CC(=O)Nc1ccc2ncnc(Nc3ccc(OCc4cccc(F)c4)c(Cl)c3)c2c1.Cc1ccc(S(=O)(=O)O)cc1
4. CN(C)C(=O)N[C@H]1CC[C@H](CCN2CCN(c3cccc(Cl)c3Cl)CC2)CC1.Cl [CARIPRAZINE HYDROCHLORIDE]
5. CC(C)(O)CNc1ncc(-c2ccnc(Nc3ccnc(Cl)c3)n2)c(CC2CC2)n1
6. COc1ncc(-c2ccc3nccc(-c4ccnnc4)c3c2)cc1NS(=O)(=O)c1ccc(F)cc1F [OMIPALISIB]

1: 26%; 2: 35%; 3: 27%; 4: 26%; 5: 32%; 6: 20%

Hey, can you go through the list below and give me Population Fragmented Nuclei (%) for every item?
1. CN1CCCC(n2nc(Cc3ccc(Cl)cc3)c3ccccc3c2=O)CC1.Cl (stereo not drawn) [AZELASTINE HYDROCHLORIDE]
2. Cl.N#Cc1ccc2[nH]cc(CCCCN3CCN(c4ccc5oc(C(N)=O)cc5c4)CC3)c2c1 [VILAZODONE HYDROCHLORIDE]
3. OC1(c2ccc(Cl)cc2)CCN(Cc2c[nH]c3ccccc23)CC1
4. Cc1c(-c2ccc(O)cc2)n(Cc2ccc(OCCN3CCCCCC3)cc2)c2ccc(O)cc12 [BAZEDOXIFENE]
5. Cc1csc2c(N[C@@H](C)CN3CCN(S(=O)(=O)c4ccc(Cl)c(Cl)c4)CC3)ncnc12
6. COc1cccc([C@@H](C)NCCCc2ccccc2Cl)c1.Cl [TECALCET HYDROCHLORIDE]
7. Cc1nc(-c2cn3c(n2)-c2ccc(-c4cnn(C(C)(C)C(N)=O)c4)cc2OCC3)n(C(C)C)n1 [TASELISIB]
8. Cc1nc(Nc2n[nH]c3c2CN(C(=O)N[C@H](CN(C)C)c2ccccc2)C3(C)C)c2sccc2n1 [PF-03758309]

["26%", "19%", "37%", "27%", "32%", "26%", "25%", "35%"]

Hey, can you go through the list below and give me Population Fragmented Nuclei (%) for every item?
1. CN1CCN(c2ccc(OC(F)(F)F)c(Nc3ncc4c(n3)-c3c(c(C(N)=O)nn3CCO)CC4)c2)CC1 [ONVANSERTIB]
2. CCN(CC)CCCCNc1ncc2cc(-c3cc(OC)cc(OC)c3)c(NC(=O)NC(C)(C)C)nc2n1 [PD-173074]
3. c1cn2cc(-c3ccc4cn[nH]c4c3)nc(Nc3ccc(N4CCOCC4)cc3)c2n1 [ENTOSPLETINIB]

34%
44%
24%

###

- Tested on: U2OS
- MEASUREMENT_DESCRIPTION: Multiplex assay against U2OS
- Format: toxicity, cell-based
- TEST_PARAMETERS: human, 12 h, 10 µM, compound concentration 10 uM, replicate 1
Decide by Population Healthy Nuclei (%): equal to or exceeding 60% means satisfied, less means not satisfied.

The examples below pair each entry with its known result.
* Cc1nc(Nc2n[nH]c3c2CN(C(=O)N[C@H](CN(C)C)c2ccccc2)C3(C)C)c2sccc2n1 [PF-03758309] | not satisfied
* CC(C)NCC(O)COc1ccc(CCOCC2CC2)cc1.Cl (stereo not drawn) [BETAXOLOL HYDROCHLORIDE] | satisfied
* Cc1csc2c(N[C@@H](C)CN3CCN(S(=O)(=O)c4ccc(Cl)c(Cl)c4)CC3)ncnc12 | not satisfied
* CN1CCN(CCOc2cc(OC3CCOCC3)c3c(Nc4c(Cl)ccc5c4OCO5)ncnc3c2)CC1 [SARACATINIB] | not satisfied
* CN1CCCC(n2nc(Cc3ccc(Cl)cc3)c3ccccc3c2=O)CC1.Cl (stereo not drawn) [AZELASTINE HYDROCHLORIDE] | not satisfied

Can CN1CCN(c2ccc(OC(F)(F)F)c(Nc3ncc4c(n3)-c3c(c(C(N)=O)nn3CCO)CC4)c2)CC1 [ONVANSERTIB] be said to have Population Healthy Nuclei (%) at or above 60%?
satisfied

Can Cn1c(-c2csc(C3CCN(CC4=NC5N=CC=CC5N4)CC3)n2)nc2ccccc21 (stereo not drawn) [BAY-070] be said to have Population Healthy Nuclei (%) at or above 60%?
satisfied

###

Please go through the items and note down their Population Apoptotic (%).
- Test system: HEK-293T
- MEASUREMENT_DESCRIPTION: Multiplex assay against HEK293T
- Type: toxicity, cell-based
- TEST_PARAMETERS: human, 24 h, 1 µM, compound concentration 1 uM, replicate 1
Field note: include the unit after the figure.

Below, each entry is followed by its recorded Population Apoptotic (%) result.
- C[C@@H](NCCCc1cccc(C(F)(F)F)c1)c1cccc2ccccc12.Cl [CINACALCET HYDROCHLORIDE]: 40%
- CN(C)CC#Cc1ccc(OCCCc2sc(N3CCc4cccc(C(=O)Nc5nc6ccccc6s5)c4C3)nc2C(=O)O)c(F)c1: 48%
- Cc1nc(-c2ccc(-c3ccc(C(=O)N4CCc5cc6c(cc54)C4(CCN(C)CC4)CO6)cc3)c(C)c2)no1: 67%

Hey, can you go through the list below and give me Population Apoptotic (%) for every item?
1. CN1CCN(c2ccc(OC(F)(F)F)c(Nc3ncc4c(n3)-c3c(c(C(N)=O)nn3CCO)CC4)c2)CC1
2. c1cn2cc(-c3ccc4cn[nH]c4c3)nc(Nc3ccc(N4CCOCC4)cc3)c2n1
3. CN(C)C(=O)N[C@H]1CC[C@H](CCN2CCN(c3cccc(Cl)c3Cl)CC2)CC1.Cl [CARIPRAZINE HYDROCHLORIDE]
4. COc1cccc([C@@H](C)NCCCc2ccccc2Cl)c1.Cl [TECALCET HYDROCHLORIDE]

1: 60%; 2: 43%; 3: 46%; 4: 36%
